# targetOrSystem: UniProtKB Q704Y3
resultType: pKd
On this scale, pKd is minus log10 of a concentration expressed in M (mol/L).

Missing value: pKd, UniProtKB Q704Y3, entry COc1cc(CNC(=O)CCCC/C=C/C(C)C)ccc1O . Fill in?
6.61

----------
# targetOrSystem: wildtype mouse TRPV1 (Mus musculus, UniProt Q704Y3)
# Sequence (Q704Y3 whole entry): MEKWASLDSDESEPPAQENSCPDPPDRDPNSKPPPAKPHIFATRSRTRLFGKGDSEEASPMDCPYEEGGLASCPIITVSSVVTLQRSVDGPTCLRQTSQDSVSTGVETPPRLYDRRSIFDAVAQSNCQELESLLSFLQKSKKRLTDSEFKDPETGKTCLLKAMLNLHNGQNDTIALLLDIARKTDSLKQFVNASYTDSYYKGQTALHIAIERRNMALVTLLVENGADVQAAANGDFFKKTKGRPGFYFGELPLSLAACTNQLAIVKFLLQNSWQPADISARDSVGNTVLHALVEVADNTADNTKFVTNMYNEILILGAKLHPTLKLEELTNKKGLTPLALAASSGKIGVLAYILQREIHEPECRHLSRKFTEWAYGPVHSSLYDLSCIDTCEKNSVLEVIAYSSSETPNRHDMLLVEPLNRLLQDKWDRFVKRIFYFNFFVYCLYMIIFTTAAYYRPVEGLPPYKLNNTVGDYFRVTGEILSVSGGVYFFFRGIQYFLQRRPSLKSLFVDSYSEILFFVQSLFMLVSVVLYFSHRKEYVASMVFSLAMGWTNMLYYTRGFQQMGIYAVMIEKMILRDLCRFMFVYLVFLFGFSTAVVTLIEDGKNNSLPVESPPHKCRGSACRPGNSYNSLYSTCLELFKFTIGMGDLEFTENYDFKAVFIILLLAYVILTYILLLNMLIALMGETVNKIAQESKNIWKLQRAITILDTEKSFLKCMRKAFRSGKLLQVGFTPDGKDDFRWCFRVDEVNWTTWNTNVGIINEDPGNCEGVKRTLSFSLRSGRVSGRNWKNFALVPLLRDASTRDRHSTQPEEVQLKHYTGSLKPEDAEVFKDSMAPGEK
# assayName: cell-based
resultType: EC50 (nM)
Write the value in nM as a bare number.

I'd like to know its EC50. The compound in question is COc1cc(CNC(=O)CCCC/C=C/C(C)C)ccc1O [capsaicin]
110
